Reported NI for target or system Histidine-rich protein PFHRP-II (Plasmodium falciparum), by entry.
Calls of active or inactive are those of the source.
Readout Kind: NI

{"Smiles Data": "Nc1ccc2ncccc2c1", "Readout Kind": "NI", "Result Value": "No inhibition"}
{"Smiles Data": "Nc1ccnc2ccccc12", "Readout Kind": "NI", "Result Value": "No inhibition"}
{"Smiles Data": "CCN(CC)CCNc1ccnc2ccccc12", "Readout Kind": "NI", "Result Value": "No inhibition"}
{"Smiles Data": "Nc1cnc2ccccc2c1", "Readout Kind": "NI", "Result Value": "inactive"}
{"Smiles Data": "NCCNc1ccc2ccccc2n1", "Readout Kind": "NI", "Result Value": "No inhibition"}
{"Smiles Data": "c1ccc2ncccc2c1", "Readout Kind": "NI", "Result Value": "inactive"}
{"Smiles Data": "CC(=O)NCCNc1ccnc2ccccc12", "Readout Kind": "NI", "Result Value": "No inhibition"}
{"Smiles Data": "NCCNc1ccnc2ccccc12", "Readout Kind": "NI", "Result Value": "No inhibition"}
{"Smiles Data": "CNc1ccc2ccccc2n1", "Readout Kind": "NI", "Result Value": "inactive"}
{"Smiles Data": "Nc1cccc2ncccc12", "Readout Kind": "NI", "Result Value": "No inhibition"}
{"Smiles Data": "OCCNc1ccnc2ccccc12", "Readout Kind": "NI", "Result Value": "No inhibition"}
{"Smiles Data": "CNc1ccnc2ccccc12", "Readout Kind": "NI", "Result Value": "No inhibition"}
{"Smiles Data": "Clc1ccc2c(Cl)ccnc2c1", "Readout Kind": "NI", "Result Value": "No inhibition"}
{"Smiles Data": "Nc1cccc2cccnc12", "Readout Kind": "NI", "Result Value": "No inhibition"}
